# Method summary: pharmacokinetics in female CD1 mice, plasma by UPLC-MS/MS
# Assay type: in vivo
# Details: mouse, plasma, iv, 1 mg/kg, I.V. 1 mg/kg, first study without NaF
Measured parameter: clearance (mL/min/kg)
Give the value in mL/min/kg but do not write mL/min/kg after it.

Any idea what its clearance is? The compound is CCC(=C(c1ccc(O)cc1)c1ccc(OCCN(C)C(=O)COCCOCCNC(=O)Cc2ccc3c(c2)CN(C2CCC(=O)NC2=O)C3=O)cc1)c1ccccc1 (stereo not shown)
730

* * *

# Method summary: pharmacokinetics in female CD1 mice, plasma by UPLC-MS/MS
# Assay type: in vivo
# Details: mouse, plasma, ip; I.P. 4 mg/kg; read-out: time of peak plasma concentration (converted)
Measured parameter: Tmax

Any idea what its Tmax is? The molecule is CCC(=C(c1ccc(O)cc1)c1ccc(OCCN(C)C(=O)COCCOCCNC(=O)Cc2ccc3c(c2)CN(C2CCC(=O)NC2=O)C3=O)cc1)c1ccccc1 (stereo not shown)
30 min

* * *

# Method summary: pharmacokinetics in female CD1 mice, plasma by UPLC-MS/MS
# Assay type: in vivo
# Details: mouse, plasma, iv, 1 mg/kg, I.V. 1 mg/kg, second study with NaF; read-out: terminal half-life (converted)
Measured parameter: half-life (min)
Give the value in min but do not write min after it.

Any idea what its half-life is? The molecule is CCC(=C(c1ccc(O)cc1)c1ccc(OCCN(C)C(=O)COCCOCCNC(=O)Cc2ccc3c(c2)CN(C2CCC(=O)NC2=O)C3=O)cc1)c1ccccc1 (stereo not shown) [TC-Pr-009]
39.6

* * *

# Method summary: pharmacokinetics in female CD1 mice, plasma by UPLC-MS/MS
# Assay type: in vivo
# Details: mouse, plasma, iv, 1 mg/kg, I.V. 1 mg/kg, second study, NaF added to EDTA tubes; read-out: peak plasma concentration
Measured parameter: Cmax (ng/mL)
Give the value in ng/mL but do not write ng/mL after it.

Any idea what its Cmax is? The compound is CCC(=C(c1ccc(O)cc1)c1ccc(OCCN(C)C(=O)COCCOCCNC(=O)Cc2ccc3c(c2)CN(C2CCC(=O)NC2=O)C3=O)cc1)c1ccccc1 (stereo not shown) [TC-Pr-009]
70.9

* * *

# Method summary: pharmacokinetics in female CD1 mice, plasma by UPLC-MS/MS
# Assay type: in vivo
# Details: mouse, plasma, iv, 1 mg/kg, I.V. 1 mg/kg, samples collected without added NaF; read-out: peak plasma concentration
Measured parameter: Cmax (ng/mL)
Give the value in ng/mL but do not write ng/mL after it.

Any idea what its Cmax is? The molecule is CCC(=C(c1ccc(O)cc1)c1ccc(OCCN(C)C(=O)COCCOCCNC(=O)Cc2ccc3c(c2)CN(C2CCC(=O)NC2=O)C3=O)cc1)c1ccccc1 (stereo not shown)
47.2

* * *

# Method summary: pharmacokinetics in female CD1 mice, plasma by UPLC-MS/MS
# Format: in vivo
# Details: mouse, plasma, po, 10 mg/kg, plasma, TABLE 7, titled PO pk (10 mg/kg), 15 minutes, individual mice; read-out: Concentration ENDX PROTAC 9
Measured parameter: concentration at 0.25 h (ng/mL)
Give the value in ng/mL but do not write ng/mL after it.

Any idea what its concentration at 0.25 h is? The compound is CCC(=C(c1ccc(O)cc1)c1ccc(OCCN(C)C(=O)COCCOCCNC(=O)Cc2ccc3c(c2)CN(C2CCC(=O)NC2=O)C3=O)cc1)c1ccccc1 (stereo not shown)
108
